- Assayed System: Epsilon protein (His6-Epsilon) (Streptococcus pyogenes, UniProt Q57231)
- Construct: His6 (N); made in house; host or cells: E. coli BL21 (DE3)
- Sequence (Q57231 1-90): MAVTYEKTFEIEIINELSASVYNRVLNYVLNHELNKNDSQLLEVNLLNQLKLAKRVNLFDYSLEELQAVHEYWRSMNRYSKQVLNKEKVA
- Test Method Notes: Fluorescence polarization (FP) direct binding assay of fluorescein-labeled peptides to Epsilon
- Condition Info: 10 nM fluorescein-labeled peptide titrated with Epsilon, 10 mM HEPES pH 7.5, 0.1% Tween-20, no NaCl, ex 470 nm/em 525 nm, EC50 taken as KD (Q close to 1), three independent experiments, n = 3 ± SD, SD, read-out: Binding constant KD
- Description: Binding affinities of the fluorescein-labeled peptides Fluo-(I–III) with Epsilon protein were determined in a fluorescence polarization (FP) assay. For the purpose, 10 nM solutions of each fluorescein-labeled peptide containing different concentrations of Epsilon (from 5 nM to 7.5 µM) were irradiated with polarized light at the excitation wavelength of 470 nm and the polarization of the emitted light was recorded in mP at […] (see Section 4). […]
pKd: −log10 of the molar value. Peptide text beside a SMILES is read from it. * marks the point of attachment. 5FAM = O=C1OC2(c3ccc(O)cc3Oc3cc(O)ccc32)c2ccc(C(=O)*)cc21

# Molecule, pKd
measured = [
    ("CC(C)C[C@H](NC(=O)[C@H](CO)NC(=O)[C@@H](NC(=O)[C@H](CC(=O)O)NC(=O)CNC(=O)c1ccc2c(c1)C(=O)OC21c2ccc(O)cc2Oc2cc(O)ccc21)[C@@H](C)O)C(=O)N[C@@H](CCCNC(=N)N)C(=O)N[C@@H](CO)C(=O)N[C@@H](C)C(=O)N[C@@H](CCC(=O)O)C(=O)N[C@@H](Cc1ccccc1)C(=O)N[C@@H](CCC(=O)O)C(=O)N[C@@H](CCC(=O)O)C(=O)N[C@H](C(=O)N[C@@H](CCC(N)=O)C(=O)O)[C@@H](C)O [Fluo-IIb] (5FAM-GDTSLRSAEFEETQ-OH)", 7.00),
    ("CC[C@H](C)[C@H](NC(=O)[C@H](CC(C)C)NC(=O)[C@H](CCC(=O)O)NC(=O)[C@H](CCC(=O)O)NC(=O)[C@H](Cc1c[nH]cn1)NC(=O)[C@H](CC(N)=O)NC(=O)[C@H](CC(C)C)NC(=O)[C@H](CC(N)=O)NC(=O)[C@H](CC(=O)O)NC(=O)c1ccc2c(c1)C(=O)OC21c2ccc(O)cc2Oc2cc(O)ccc21)C(=O)N[C@@H](CCC(N)=O)C(=O)O [Fluo-Ie] (5FAM-DNLNHEELIQ-OH; C-terminus assumed)", 6.76),
    ("CC[C@H](C)[C@H](NC(=O)[C@H](CC(C)C)NC(=O)[C@H](CCC(=O)O)NC(=O)[C@H](CCC(=O)O)NC(=O)[C@H](Cc1c[nH]cn1)NC(=O)[C@H](CC(N)=O)NC(=O)[C@H](CC(=O)O)NC(=O)[C@H](CC(N)=O)NC(=O)[C@H](CC(C)C)NC(=O)[C@H](CCCNC(=N)N)NC(=O)[C@H](CC(N)=O)NC(=O)[C@H](CCC(=O)O)NC(=O)[C@H](Cc1ccccc1)NC(=O)c1ccc2c(c1)C(=O)OC21c2ccc(O)cc2Oc2cc(O)ccc21)C(=O)N[C@@H](CCC(N)=O)C(=O)O [Fluo-Ib] (5FAM-FENRLNDNHEELIQ-OH)", 7.05),
]

----------
- Assayed System: Epsilon protein (His6-Epsilon) (Streptococcus pyogenes)
- Construct: His6 (N); made in house; host or cells: E. coli BL21 (DE3)
- Test Method Notes: Competitive FP binding assay: acetylated peptides displace fluorescein-labeled peptide from Epsilon
- Condition Info: 500 nM Epsilon, 10 nM Fluo-Ia, unlabeled peptide 0.01-100 µM, 10 mM HEPES pH 7.5, 0.1% Tween-20, 384-well, duplicates in three independent experiments ± SD, read-out: IC50, competition with Fluo-Ia, 500 nM Epsilon
Ends that are not written are not given here.
Readout Label: IC50 (µM)

# Substance, Data Value
records = [
    ("Ac-LNDNHEELIQ [Ac-Ia]", 51.8),
]
